system: T1, huROR1-His (human ROR1 ECD AA30-406 with C-terminal His tag, made in house) (human, UniProt Q01973 30-406)
T1 construct: range 30-406; Expressed in HEK293; also called antigen protein huROR1-His; not shown: C-terminal His tag
T1 sequence (Q01973 30-406 limits assumed): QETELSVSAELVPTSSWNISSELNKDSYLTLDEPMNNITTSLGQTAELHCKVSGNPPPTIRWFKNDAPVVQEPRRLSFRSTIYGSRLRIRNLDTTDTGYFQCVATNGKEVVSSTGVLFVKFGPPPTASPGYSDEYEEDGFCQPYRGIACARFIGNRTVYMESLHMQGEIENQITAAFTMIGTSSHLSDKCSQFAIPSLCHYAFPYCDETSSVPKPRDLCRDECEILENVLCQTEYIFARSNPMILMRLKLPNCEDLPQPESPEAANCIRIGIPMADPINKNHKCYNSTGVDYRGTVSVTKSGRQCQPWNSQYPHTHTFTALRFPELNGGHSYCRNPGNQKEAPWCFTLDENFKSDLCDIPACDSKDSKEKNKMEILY
test-details: ELISA, huROR1-His coated at 2 µg/mL, goat anti-human Fc-HRP, OD450
Provide the reported EC50 of each item.
Numbers only, in ng/mL.

Below, 3 binders whose answers are already recorded.
1. M78 (chimeric antibody) (antibody, human IgG1, kappa, V domains shown, ExpiCHO expression) VH: EVMLVESGGGLVRPGGSLKLSCAASGFTFSSYAMSWVRQSPEKRLEWVASINRGGTTYYPDSVKGRFTISRDNARDILYLQMSSLRSEDTAIYYCARDYYYGSNLYNGMDYWGQGTSVIVSS VL: DIKITQSPSSMYASLGERVTITCKASQDINSYLSWFQQKPGKSPKTLIYRANRLVDGVPSRFSGSGSGQDYSLTISSLEYEDMGIYYCLQFDEFPYTFGGGTKLEIKR; 2.12
2. C77 (chimeric antibody) (antibody, human IgG1, kappa, V domains shown, ExpiCHO expression) VH: EVKLVESGGGLVKPGGSLKLSCAASGFSFSNYAMSWVRQTPEKRLEWVASINSGVTTYYPDSVKGRFTVSRDNARNILYLHMTGLRSEDTAIYYCSRGYYYGGSPYWHFDVWGAGTTVTVSS VL: DIQMTQSPSSMHASLGERVTITCKASQDINNYVSWFQQKPGKSPKTLIYRANRLVDGVPSRFSGSGSGQDYSFTISSLEYEDMGIYYCLQFDEFPYTFGGGTKLEIKR; 6.03
3. C42 (chimeric antibody) (antibody, human IgG1, kappa, V domains shown, ExpiCHO expression) VH: EVMLVESGGGLVKPGGSLKLSCAASGFTFSNYIMSWVRQTPEKRLEWVATINSGGTNTYYPDSVKGRFTISRDNAKNSLYLQMNSLRSEDTALYYCTRYNGNYVWFAYWGQGTLVTVSA VL: DIVLTQSPAIMSASPGEKVTMTCSASSSVSFIYWYQQKPGSSPRLLIYDTSNLASGVPVRFSGSGSGTSYSLTISRMEAEDAATYYCQQWSNYHFTFGSGTKLEIKR; 2.03

Could I get EC50 for every one of these entries?
1. B39 (chimeric antibody) (antibody, human IgG1, kappa, V domains shown, ExpiCHO expression) VH: EVKLVESGGGLVKPGGSLKLSCAASGFTFSTYAMSWVRQTPEKRLEWVASISTGASTYYPDSVKGRFTISRDNARNILYLQMSSLRSEDTAMYYCAREETTTAALYYAMDYWGQGTSVTVSS VL: DIKITQSPSSMYASLGERVTITCKASQDINNYLSWFQQKPGKSPKTLIYRANRLVDGVPSRFSGSGSGQDYSLTISSLEYEDMGIYYCLQFDEFPYTFGGGTKLEIKR
2. B31 (chimeric antibody) (antibody, human IgG1, kappa, V domains shown, ExpiCHO expression) VH: EVMLVESGGGLVKPGGSLKLSCAASGFTFSRYAMSWVRQTPEKRLEWVASISRGGSTYYPDSVKGRFTISRDNARNILYLQMSSLRSEDTAMYYCASYFGNYDAMDYWGQGTSVTVSS VL: DIQMNQSPSSMYASLGERVTITCKASQDINNYVSWFQQKPGKSPKTLIYRANRLVDGVPSRFSGSGSGQDYSFTISSLEYEDMGIYYCLQFDEFPYTFGGGTKLEIKR
3. B34 (chimeric antibody) (antibody, human IgG1, kappa, V domains shown, ExpiCHO expression) VH: EVQLVESGGGLVQPKGSLKLSCAASGFTFSRYAMSWVRQTPEKRLEWVASISTGGSPYYPDSVKGRFTISRDNARNILYLQMSSLKSEDTAMYYCARGYYYNSSPHWYFAVWGAGTSVTVSS VL: DIQMTQSPSSLSASLGERVTITCKASQDINSYLSWFQQKPGKSPKTLIYRANRLVDGVPSRFSGSGSGQDYSLTISSLEYEDMGIYYCLQYDEFPYTFGGGTKLEIKR

Result:
1: 5.52; 2: 5.49; 3: 6.28
